These entries and their values trace back to the supplement of paper PMC9103864.

# Tested on: BMSC (primary human bone marrow mesenchymal stromal cells)
# procedure_details: absolute EC50 for viability; higher = less sensitive
For each record, write down the corresponding absolute EC50 for viability.

Known results for molecules:
molecule	reported_result
CN1CC[C@@H](NC(=O)Nc2ccc(C#N)cc2)C[C@@H]1c1nc2ccccc2[nH]1 [Glasdegib]	> 1000 nM
COc1ccc(-c2nc(N3CCOCC3)c3sc(CN(C)c4ncc(C(=O)NO)cn4)cc3n2)cn1 [CUDC-907]	64.9 nM
COc1cc2c(NC3CCN(C(C)C)CC3)nc(C3CCCCC3)nc2cc1OCCCN1CCCC1 [UNC0638]	3290 nM
c1cc(CN2CCCNCCNCCCNCC2)ccc1CN1CCCNCCNCCCNCC1 [Plerixafor]	> 10000 nM
CC1(COc2ccc3c(c2)ncn3-c2ccc3cccc(N4CCC(N)CC4)c3n2)COC1 [Crenolanib]	1840 nM

Record absolute EC50 for viability for all entries; do not skip any.
1. O=C(/C=C\n1cnc(-c2cc(C(F)(F)F)cc(C(F)(F)F)c2)n1)NNc1ccccn1 [Verdinexor]
2. COc1cc2c(cc1-c1c(C)noc1C)ncc1[nH]c(=O)n([C@H](C)c3ccccn3)c12 [I-BET151]
3. Cc1c(-c2c(-c3ccc(F)o3)sc3ncnc(O[C@H](Cc4ccccc4OCc4ccnn4CC(F)(F)F)C(=O)O)c23)ccc(OCCN2CCN(C)CC2)c1Cl
4. CN1CCN(C2CCC(n3cc(-c4ccc(Oc5ccccc5)cc4)c4c(N)ncnc43)CC2)CC1 (stereo unspecified)
5. COc1cc(N2CCN(C)CC2)ccc1Nc1nccc(-c2cn(C)c3cnccc23)n1 [AZ191]

Response given:
["> 1000 nM", "> 10000 nM", "> 1000 nM", "1000 nM", "2710 nM"]

###

# Tested on: BMSC (primary human bone marrow mesenchymal stromal cells)
# procedure_details: absolute EC50 for viability; higher = less sensitive
What absolute EC50 for viability was measured for each of the following?

molecule	observable	reported_result
N#CC1(c2ccc(NC(=O)c3cccnc3NCc3ccncc3)cc2)CCCC1	absolute EC50 for viability	> 10 µM
COc1cc2c(N3CCN(C(=O)Nc4ccc(OC(C)C)cc4)CC3)ncnc2cc1OCCCN1CCCCC1	absolute EC50 for viability	> 1 µM
CC[C@H](Nc1ncnc2[nH]cnc12)c1nc2cccc(F)c2c(=O)n1-c1ccccc1	absolute EC50 for viability	> 10 µM
C[C@]1(O)C[C@@H](c2nc(-c3ccc4ccc(-c5ccccc5)nc4c3)c3c(N)nccn32)C1	absolute EC50 for viability	> 10 µM
CC1CCC(n2c3cnccc3c3cnc(Nc4ccc5c(n4)CCN(C(=O)CO)C5)nc32)CC1 (stereo not given)	absolute EC50 for viability	> 1 µM
Cn1c(Nc2ccc(C(F)(F)F)cc2)nc2cc(Oc3ccnc(-c4ncc(C(F)(F)F)[nH]4)c3)ccc21	absolute EC50 for viability	> 1 µM

Record absolute EC50 for viability for all entries; do not skip any.
1. CN1CCC(CNc2ccc3ncc(-c4cccc(OC(F)(F)F)c4)n3n2)CC1
2. O=S(=O)(c1cccc2c(O)nccc12)N1CCCNCC1 [Hydroxyfasudil]
3. CC(C)n1nc(-c2ccc3oc(N)nc3c2)c2c(N)ncnc21
4. CS(=O)(=O)c1ccc(C(=O)Nc2ccc(Cl)c(-c3ccccn3)c2)c(Cl)c1
5. CC1(C)CNc2cc(NC(=O)c3cccnc3NCc3ccncc3)ccc21
6. CNCc1ccc(-c2[nH]c3cc(F)cc4c3c2CCNC4=O)cc1
7. Nc1ccccc1NC(=O)c1ccc(CNC(=O)OCc2cccnc2)cc1

Response given:
["1.4 µM", "> 19 µM", "0.0759 µM", "> 10 µM", "> 10 µM", "> 10 µM", "> 10 µM"]
